# credit: patent US5916873A

Could you please report measured MIC S. aureus 489 for the items listed next?
tested on: S. aureus 489; assay: standard broth micro-dilution MIC; assay type: cell-based; conditions: Table 2A; strain 489
Report the figure in mg/L without appending any unit label.

Returns the measured MIC S. aureus 489 for the input molecule. Input: CC(=O)NC1C(OC2c3ccc(c(Cl)c3)Oc3cc4cc(c3OC3OC(CO)C(O)C(O)C3NCc3ccc(-c5ccccc5)cc3)Oc3ccc(cc3Cl)CC3NC(=O)C(NCc5ccc(-c6ccccc6)cc5)c5ccc(O)c(c5)Oc5cc(O)cc(c5)C(NC3=O)C(=O)NC4C(=O)NC3C(=O)NC2C(=O)NC(C(=O)O)c2cc(O)cc(OC4OC(CO)C(O)C(O)C4O)c2-c2cc3ccc2O)OC(CO)C(O)C1O.O=C(O)C(F)(F)F (stereo not drawn)
0.125

Returns the measured MIC S. aureus 489 for the input molecule. Input: CC(=O)NC1C(OC2c3ccc(c(Cl)c3)Oc3cc4cc(c3OC3OC(CO)C(O)C(O)C3NCc3cccc(Oc5ccccc5)c3)Oc3ccc(cc3Cl)CC3NC(=O)C(NCc5cccc(Oc6ccccc6)c5)c5ccc(O)c(c5)Oc5cc(O)cc(c5)C(NC3=O)C(=O)NC4C(=O)NC3C(=O)NC2C(=O)NC(C(=O)O)c2cc(O)cc(OC4OC(CO)C(O)C(O)C4O)c2-c2cc3ccc2O)OC(CO)C(O)C1O (stereo not drawn)
1
